- studyTarget: MCL-1 (Homo sapiens (Human))
- procedureText: Fluorescence polarization competition assay (FPCA), displacement of FITC-Bak from MCL-1
- Type: binding
- testConditions: Table 5; heterocyclic core SAR; read-out: MCL-1 Ki
pKi: −log10 of the molar value.
quantity: pKi

{"smilesInput": "Cc1cc(Oc2ccc(Cn3nc4cc(Cl)ccc4c3C(=O)O)cc2)cc(C)c1Cl", "studyTarget": "MCL-1 (Homo sapiens (Human))", "numericResult": 5.76}
{"smilesInput": "Cc1cc(Oc2ccc(Cn3nc4ccc(Cl)cc4c3C(=O)O)cc2)cc(C)c1Cl", "studyTarget": "MCL-1 (Homo sapiens (Human))", "numericResult": 5.63}

----------
- studyTarget: MCL-1 (Homo sapiens (Human))
- procedureText: Fluorescence polarization competition assay (FPCA), displacement of FITC-Bak from MCL-1
- Assay type: binding
- testConditions: Table 8; N-1-alkylated isomers; read-out: MCL-1 Ki
quantity: Ki (nM)
The reply should contain only the number, in nM.

(Q) Please report the recorded Ki for Cc1cc(Oc2ccc(Cn3nc(C(=O)O)c4cc(Cl)ccc43)cc2)cc(C)c1Cl [compound 50] .
(A) 1580

----------
- studyTarget: MCL-1 (Homo sapiens (Human), UniProt Q07820)
- Sequence (Q07820 172-327): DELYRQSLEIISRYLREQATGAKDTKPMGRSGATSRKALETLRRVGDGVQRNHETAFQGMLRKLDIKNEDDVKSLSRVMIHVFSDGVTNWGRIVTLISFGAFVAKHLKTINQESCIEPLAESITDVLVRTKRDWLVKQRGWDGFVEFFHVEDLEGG
- procedureText: Fluorescence polarization competition assay (FPCA), displacement of FITC-Bak from MCL-1
- Type: binding
- testConditions: read-out: MCL-1 Ki
pKi: −log10 of the molar value.
quantity: pKi

{"smilesInput": "Cc1cc(Oc2ccc(Cn3nc4cc(Cl)ccc4c3C(=O)O)cc2)cc(C)c1Cl", "numericResult": 5.75}
{"smilesInput": "Cc1cc(Oc2ccc(Cn3nc4ccc(Cl)cc4c3C(=O)O)cc2)cc(C)c1Cl", "numericResult": 5.63}

----------
- studyTarget: BCL-XL (Homo sapiens (Human), UniProt Q07817)
- Sequence (Q07817 1-212): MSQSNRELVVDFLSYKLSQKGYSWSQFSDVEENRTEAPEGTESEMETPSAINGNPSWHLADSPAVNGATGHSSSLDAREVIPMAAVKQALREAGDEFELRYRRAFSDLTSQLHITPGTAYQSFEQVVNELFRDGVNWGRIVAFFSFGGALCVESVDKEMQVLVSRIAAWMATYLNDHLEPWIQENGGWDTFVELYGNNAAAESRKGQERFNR
- procedureText: Fluorescence polarization competition assay (FPCA), displacement of FITC-Bak from BCL-XL
- Format: binding
- testConditions: Table 3; FITC-Bak peptide displacement; read-out: BCL-XL Affinity Ki
Recorded Ki by entry
The reply should contain only the number, in nM.

Example entries begin here.
{"compound": "Cc1cc(Oc2ccc(Cn3nc(C(=O)NS(=O)(=O)c4ccc([N+](=O)[O-])c(N5CCOCC5)c4)c4cc(Cl)ccc43)cc2)cc(C)c1Cl [CG-1-016]", "studyTarget": "BCL-XL (Homo sapiens (Human), UniProt Q07817)", "units": "nM", "Ki": 436}
{"compound": "Cc1cc(Oc2ccc(Cn3nc(C(=O)NS(=O)(=O)c4ccc(Cl)cc4)c4cc(Cl)ccc43)cc2)cc(C)c1Cl [NB-1-084]", "studyTarget": "BCL-XL (Homo sapiens (Human), UniProt Q07817)", "units": "nM", "Ki": 840}
{"compound": "Cc1cc(OCCCn2nc(C(=O)NS(=O)(=O)c3ccc(NCC4CCCO4)c([N+](=O)[O-])c3)c3cc(Cl)ccc32)cc(C)c1Cl (stereo not drawn) [BD-3-184]", "studyTarget": "BCL-XL (Homo sapiens (Human), UniProt Q07817)", "units": "nM", "Ki": 840}

(Q) Please report the recorded Ki for Cc1cc(OCCCn2nc(C(=O)NS(=O)(=O)c3ccc(NCc4ccco4)c([N+](=O)[O-])c3)c3cc(Cl)ccc32)cc(C)c1Cl [BD-3-180] .
(A) 597

(Q) Please report the recorded Ki for Cc1cc(Oc2ccc(Cn3nc(C(=O)NS(=O)(=O)c4ccc(NCc5ccco5)c([N+](=O)[O-])c4)c4cc(Cl)ccc43)cc2)cc(C)c1Cl [NB-1-089] .
(A) 551

(Q) Please report the recorded Ki for Cc1cc(OCCCn2nc(C(=O)NS(=O)(=O)c3ccc(N4CCOCC4)c([N+](=O)[O-])c3)c3cc(Cl)ccc32)cc(C)c1Cl [BD-3-183] .
(A) 1060
